Below, IC50 values reported for ULK1 (Homo sapiens) across several publications.

> print(dat)
                                   compound  measured.property  endpoint.value
1  CCc1cc(N2CCN(C)CC2)ccc1Nc1ncc(Br)c(NCCCN2CCCCC2=O)n1               IC50    25 to 100 nM
2  O=C1CCc2cc(Nc3ncc(C(F)(F)F)c(-c4ccccc4)n3)ccc2N1               IC50       > 2000 nM
3  COc1cc(N2CCOCC2)ccc1Nc1ncc(C(F)(F)F)c(NCc2cccc(S(C)(=O)=O)c2)n1               IC50       > 2000 nM
4  Cc1cc(N2CCOCC2)ncc1Nc1ncc(C(F)(F)F)c(NCCCN2CCCCC2=O)n1               IC50        > 500 nM
5  CCN1CCC(n2cc(Nc3ncc(Cl)c(NCCCN4CCCCC4=O)n3)c(C)n2)CC1               IC50   100 to 500 nM

Entry `CNC(=O)c1ccccc1Nc1nc(Nc2ccc3c(c2)CC(=O)N3)ncc1Cl` under ULK1 (Homo sapiens) had IC50 of < 200 nM

Entry `CN1CCN(c2ccc(Nc3ncc(C(F)(F)F)c(NCCCN4CCCCC4=O)n3)c(C3CC3)c2)CC1` under ULK1 (Homo sapiens) had IC50 of 1 to 25 nM

Entry `O=C1CCCCCN1CCCNc1nc(Nc2cnn(C3CCNCC3)c2)ncc1C(F)(F)F` under ULK1 (Homo sapiens) had IC50 of 1 to 25 nM

Entry `FC(F)(F)c1cnc(Nc2ccc3nn[nH]c3c2)nc1NC1CC1` under ULK1 (Homo sapiens) had IC50 of < 200 nM

---

Below, IC50 values reported for UniProt O75385 across several publications.

IC50 recorded for this compound, `O=C1CCc2cc(Nc3ncc(C(F)(F)F)c(NC4COC4)n3)ccc2N1` , is > 2000 nM

IC50 recorded for this compound, `O=C1COCCCN1CCCNc1nc(Nc2ccc(N3CCOCC3)cc2C2CC2)ncc1Cl` , is > 500 nM

IC50 recorded for this compound, `Cc1nn(C2CCN(C)CC2)cc1Nc1ncc(C(F)(F)F)c(NCCCN2CCCC2=O)n1` , is 25 to 100 nM

---

pIC50: −log10 of the molar value.
Below, pIC50 values reported for ULK1 (Homo sapiens, UniProt O75385) across several publications.

Below are worked cases with known answers.
> print(dat)
                                   compound                      subject.of.test  measured.property  endpoint.value
1   COc1cc(Nc2ncc(Br)c(NC3CC3)n2)cc(OC)c1OC  ULK1 (Homo sapiens, UniProt O75385)              pIC50          > 6.70
2  Cc1cc(C2CCN(C)CC2)ccc1Nc1ncc(C(F)(F)F)c(NCCCN(C)C(=O)C2CCC2)n1  ULK1 (Homo sapiens, UniProt O75385)              pIC50    7.60 to 9.00
3  Cc1nn([C@@H]2CCNC2)cc1Nc1ncc(C(F)(F)F)c(NCCCN2CCCCC2=O)n1  ULK1 (Homo sapiens, UniProt O75385)              pIC50    7.60 to 9.00

Attention now shifts to the item below.
Entry `Cc1nn([C@@H]2CCNC2)cc1Nc1ncc(Br)c(NCCCN2CCCCC2=O)n1` under ULK1 (Homo sapiens, UniProt O75385) had pIC50 of 7.00 to 7.60

---

pIC50: −log10 of the molar value.
Below, pIC50 values reported for ULK1 (Homo sapiens, UniProt O75385) across several publications.

Below are worked cases with known answers.
> print(dat)
                                   compound                      subject.of.test  endpoint.value
1  CCc1cc(N2CCN(C)CC2)ccc1Nc1ncc(C(F)(F)F)c(NCCCN2CCCOC2=O)n1  ULK1 (Homo sapiens, UniProt O75385)    7.60 to 9.00
2  CC(C)CN1CC(n2cc(Nc3ncc(Br)c(NCCCN4CCCCC4=O)n3)cn2)C1  ULK1 (Homo sapiens, UniProt O75385)    7.00 to 7.60
3  CNC(=O)c1ccccc1Nc1nc(Nc2ccc3c(c2)CCC(=O)N3)ncc1-c1ccccc1  ULK1 (Homo sapiens, UniProt O75385)          > 6.70
4  Cc1nn(CCCN2CCOCC2)cc1Nc1ncc(Cl)c(NCCCN2CCOCCC2=O)n1  ULK1 (Homo sapiens, UniProt O75385)          < 6.30
5  Cc1nn(C2CCN(C3CCC3)CC2)cc1Nc1ncc(C(F)(F)F)c(NCCCN2CCCCCC2=O)n1  ULK1 (Homo sapiens, UniProt O75385)    7.60 to 9.00
6  CN1CCC(n2cc(Nc3ncc(C(F)(F)F)c(NCCCN4CCCCC4=O)n3)cn2)CC1  ULK1 (Homo sapiens, UniProt O75385)    7.60 to 9.00
7  Cc1cc(C2CCNCC2)ccc1Nc1ncc(C(F)(F)F)c(NCCCN(C)C(=O)C2CCC2)n1  ULK1 (Homo sapiens, UniProt O75385)    7.60 to 9.00

Attention now shifts to the item below.
Entry `CNC(=O)c1ccccc1Nc1nc(Nc2ccccc2C)ncc1Cl` under ULK1 (Homo sapiens, UniProt O75385) had pIC50 of < 5.70

---

Below, IC50 values reported for ULK1 (Homo sapiens, UniProt O75385) across several publications.

> print(dat)
                                   compound                      subject.of.test  measured.property  endpoint.value
1  Cc1nn(CCCN2CCOCC2)cc1Nc1ncc(C(F)(F)F)c(NCCCN2CCCCCC2=O)n1  ULK1 (Homo sapiens, UniProt O75385)               IC50    25 to 100 nM
2  Cc1cc(N2CCN(C)CC2)ncc1Nc1cc(NCCCN2CCCCC2=O)c(C(F)(F)F)cn1  ULK1 (Homo sapiens, UniProt O75385)               IC50   100 to 500 nM
3  Nc1nc(Nc2ccc3c(c2)CCC(=O)N3)ncc1C(F)(F)F  ULK1 (Homo sapiens, UniProt O75385)               IC50  200 to 2000 nM
4  CCc1cc(N2CCN(C)CC2)ccc1Nc1ncc(C(F)(F)F)c(NCCCNC(=O)C2CCC2)n1  ULK1 (Homo sapiens, UniProt O75385)               IC50      1 to 25 nM

Attention now shifts to the item below.
Entry `CCN1CCN(c2ccc(Nc3ncc(C(F)(F)F)c(NCCCN4CCCCC4=O)n3)c(C)c2)CC1` under ULK1 (Homo sapiens, UniProt O75385) had IC50 of 1 to 25 nM

---

Below, IC50 values reported for ULK1 (Homo sapiens, UniProt O75385) across several publications.

Below are worked cases with known answers.
> print(dat)
                                   compound  measured.property  endpoint.value
1            FC(F)(F)c1cnc(NC2CC2)nc1NC1CC1               IC50       > 2000 nM
2  CC(C)CN1CC(n2cc(Nc3ncc(Br)c(NCCCN4CCCC4=O)n3)cn2)C1               IC50   100 to 500 nM
3  CNC(=O)c1ccccc1Nc1nc(Nc2cc(N3CCOCC3)cc(N3CCOCC3)c2)ncc1C(F)(F)F               IC50        < 200 nM
4  Cc1nn(C2CCN(C(C)C)CC2)cc1Nc1ncc(C(F)(F)F)c(NCCCNC(=O)C2CCC2)n1               IC50    25 to 100 nM
5  FC1(F)Oc2ccc(Nc3ncc(C(F)(F)F)c(NC4CC4)n3)cc2O1               IC50       > 2000 nM

Entry `c1cc(NC2CC2)nc(Nc2ccc3c(c2)OCCO3)n1` under ULK1 (Homo sapiens, UniProt O75385) had IC50 of > 2000 nM

Entry `FC(F)(F)c1cnc(Nc2ccc3c(c2)OCO3)nc1NC1CC1` under ULK1 (Homo sapiens, UniProt O75385) had IC50 of < 200 nM

Entry `CNC(=O)c1ccccc1Nc1nc(Nc2ccc3c(c2)CCC(=O)N3)ncc1C(F)(F)F` under ULK1 (Homo sapiens, UniProt O75385) had IC50 of < 200 nM

Entry `CNC(=O)c1cccc(OC)c1Oc1nc(Nc2cc(OC)c(OC)c(OC)c2)ncc1Br` under ULK1 (Homo sapiens, UniProt O75385) had IC50 of < 200 nM
